- target: ^-5IDH1/IDH2 enzyme (truncated, octameric) (Saccharomyces cerevisiae, UniProt P28241+P28834)
- procedureText: Diamide inhibition of catalytic activity
- Format: biochemical, yeast
pIC50: −log10 of the molar value.
endpointName: pIC50

molecule="CN(C)C(=O)/N=N/C(=O)N(C)C [diamide]" endpointname=pIC50 valuemeasured=3.80

====

- target: IDH1/IDH2 enzyme (wild-type, octameric) (Saccharomyces cerevisiae, UniProt P28241+P28834)
- Sequence (P28834 12-360): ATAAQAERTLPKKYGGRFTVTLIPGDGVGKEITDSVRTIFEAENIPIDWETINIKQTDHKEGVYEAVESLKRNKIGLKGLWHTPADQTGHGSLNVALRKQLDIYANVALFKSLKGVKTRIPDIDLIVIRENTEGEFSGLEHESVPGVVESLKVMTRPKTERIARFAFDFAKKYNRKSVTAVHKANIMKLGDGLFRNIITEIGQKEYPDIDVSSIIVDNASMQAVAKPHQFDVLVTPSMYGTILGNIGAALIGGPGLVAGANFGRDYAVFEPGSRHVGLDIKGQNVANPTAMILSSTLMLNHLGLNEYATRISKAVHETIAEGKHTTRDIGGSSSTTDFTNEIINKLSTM
- Sequence (P28241 16-369): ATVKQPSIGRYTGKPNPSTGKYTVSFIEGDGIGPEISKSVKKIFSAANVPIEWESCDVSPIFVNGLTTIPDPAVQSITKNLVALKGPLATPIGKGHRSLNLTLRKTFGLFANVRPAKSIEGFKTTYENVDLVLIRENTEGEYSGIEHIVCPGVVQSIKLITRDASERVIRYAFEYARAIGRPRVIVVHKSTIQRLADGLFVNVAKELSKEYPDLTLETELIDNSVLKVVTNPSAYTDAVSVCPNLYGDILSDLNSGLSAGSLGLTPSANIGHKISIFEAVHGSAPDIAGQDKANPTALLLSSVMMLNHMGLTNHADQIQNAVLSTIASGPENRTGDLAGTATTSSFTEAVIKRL
- procedureText: Diamide inhibition of catalytic activity
endpointName: IC50 (µM)

compound="CN(C)C(=O)/N=N/C(=O)N(C)C [diamide]" target="IDH1/IDH2 enzyme (wild-type, octameric) (Saccharomyces cerevisiae, UniProt P28241+P28834)" valuemeasured=500

====

- target: ^-5IDH1^D168K/IDH2 enzyme (tetrameric) (Saccharomyces cerevisiae, UniProt P28241+P28834, D179K)
- procedureText: Diamide inhibition of catalytic activity
endpointName: IC50 (µM)

compound="CN(C)C(=O)/N=N/C(=O)N(C)C [diamide]" valuemeasured=13

Cited source: paper PMC3137751
